Tested on: Cephalothinsensitive E. coli, Kl. pneumoniae and Pr. mirabilis
Assay: MIC, two-fold serial agar dilution in Mueller-Hinton agar, group (G-)-Ia
Format: cell-based
Details: (G-)-Ia, cephalothin-sensitive E. coli (2), Kl. pneumoniae (1), Pr. mirabilis (2 strains); read-out: Geometric Mean of MIC
reported endpoint: MIC (µg/mL)

molecule | reported
Cc1csc[n+]1CC1=C(C(=O)[O-])N2C(=O)C(NC(=O)/C(=N\OC(C)(C)C(=O)O)c3csc(N)n3)C2SC1 (stereo not drawn) | 0.076
CC(C)(O/N=C(\C(=O)NC1C(=O)N2C(C(=O)[O-])=C(C[n+]3ccsc3N)CS[C@H]12)c1csc(N)n1)C(=O)O (stereo partly drawn) | 0.15
CC(C)(O/N=C(\C(=O)NC1C(=O)N2C(C(=O)[O-])=C(C[n+]3ccsc3NC=O)CS[C@H]12)c1csc(N)n1)C(=O)O (stereo partly drawn) | 0.15
CSc1scc[n+]1CC1=C(C(=O)[O-])N2C(=O)C(NC(=O)/C(=N\OC3(C(=O)O)CCC3)c3csc(N)n3)[C@H]2SC1 (stereo partly drawn) | 0.025
CC(C)(O/N=C(\C(=O)NC1C(=O)N2C(C(=O)[O-])=C(C[n+]3ccsc3SCC(=O)O)CS[C@H]12)c1csc(N)n1)C(=O)O (stereo partly drawn) | 0.26
Cc1scc[n+]1CC1=C(C(=O)[O-])N2C(=O)C(NC(=O)/C(=N\OC3(C(=O)O)CCC3)c3csc(N)n3)[C@H]2SC1 (stereo partly drawn) | 0.076

* * *

Test: Mouse blood levels after single intramuscular injection
Type: in vivo, mice
Settings: 40 mg/kg im, 20 minutes, read-out: Mouse Blood Level

compound | concentration at 20 min, µg/mL
CSc1scc[n+]1CC1=C(C(=O)[O-])N2C(=O)C(NC(=O)/C(=N\OC3(C(=O)O)CCC3)c3csc(N)n3)[C@H]2SC1 (stereo partly drawn) | 27
CO/N=C(\C(=O)NC1C(=O)N2C(C(=O)[O-])=C(C[n+]3ccsc3SC)CS[C@H]12)c1csc(N)n1 (stereo partly drawn) | 36
CSc1scc[n+]1CC1=C(C(=O)[O-])N2C(=O)C(NC(=O)/C(=N\OC(C)(C)C(=O)O)c3csc(N)n3)[C@H]2SC1 (stereo partly drawn) | 40

* * *

Assay: Mouse blood levels after single intramuscular injection
Type: in vivo, mice
Conditions: 40 mg/kg im
Let's look at some compounds and their measured half-life.

compound | half-life
CSc1scc[n+]1CC1=C(C(=O)[O-])N2C(=O)C(NC(=O)/C(=N\OC3(C(=O)O)CCC3)c3csc(N)n3)[C@H]2SC1 (stereo partly drawn) | 11 min
CSc1scc[n+]1CC1=C(C(=O)[O-])N2C(=O)C(NC(=O)/C(=N\OC(C)(C)C(=O)O)c3csc(N)n3)[C@H]2SC1 (stereo partly drawn) | 13 min
CO/N=C(\C(=O)NC1C(=O)N2C(C(=O)[O-])=C(C[n+]3ccsc3SC)CS[C@H]12)c1csc(N)n1 (stereo partly drawn) | 54 min

* * *

Test: Mouse blood levels after single intramuscular injection
Assay type: in vivo, mice
Conditions: 10 mg/kg im, 50 minutes, read-out: Mouse Blood Level
reported endpoint: concentration at 50 min (ng/mL)

compound | reported
CO/N=C(\C(=O)NC1C(=O)N2C(C(=O)[O-])=C(C[n+]3ccsc3SC)CS[C@H]12)c1csc(N)n1 (stereo partly shown) | 9800
